Origin of measurements: PubChem BioAssay (NCI)

- Test system: HOP-92 NSCLC
Outcomes you can answer with include only these: TRUE = active, FALSE = inactive

What is the recorded call for this compound in the test? CC(C)(C)C([O-])=C1C(=O)c2ccccc2C1=O.CC(C)(C)C([O-])=C1C(=O)c2ccccc2C1=O.CC[O-].CC[O-].[Ti+4]
FALSE

Also need CCCCc1cc(O)ccc1O , thanks.
FALSE

Also need CC1(C)C(=O)/C(=C\c2ccco2)C[C@]2(C)[C@H]3CC=C4[C@@H]5C[C@](C)(C(=O)O)CC[C@]5(C)CC[C@@]4(C)[C@]3(C)CC[C@@H]12 , thanks.
FALSE

Also need COc1ccc(-c2cn3ccnc3c(-c3ccc4ncn(C5CCCCC5)c4c3)n2)cc1 , thanks.
FALSE

Also need COC(=O)c1ccc2c(c1)c1c(C)c3cnccc3c(C)c1n2C , thanks.
TRUE

----------
List of TGI values.
- Test system: SF-539 CNS
- testDescription: NCI tumour cell line growth inhibition, 48 h

| compound | systemUnderTest | TGI |
| --- | --- | --- |
| O=C(c1cccs1)N(C(=O)N1CCC(c2ccccc2)CC1)c1ccccc1 | SF-539 CNS | > 100 µM |
| c1cncc(C2c3[nH]c4ccccc4c3CCN2CCN2CCCCC2)c1 (stereo not drawn) | SF-539 CNS | > 100 µM |

Read the next record carefully.
# query: TGI of entry N#CC(c1ccccc1)c1cccc2ccccc12 (stereo not drawn)
> 100 µM

----------
- Test system: SF-539 CNS
- testDescription: NCI tumour cell line growth inhibition, 48 h
valueKind: TGI

Some solved cases for reference:
| compound | TGI |
| --- | --- |
| CC1(C)N=C(N)N=C(N)N1c1cccc(CSc2ccccc2)c1 | > 100 µM |
| CN(C)CCNC(=O)c1cccc(CO)c1[N+](=O)[O-] | > 100 µM |
| C=C[C@H]1CN2CC[C@H]1C[C@@H]2[C@@H](O)c1ccnc2ccccc12 | > 100 µM |
| CN(C)CN1C(=O)S/C(=C2\C(=O)N(CN(C)C)c3ccccc32)C1=O | > 100 µM |
| CCCCNC(=S)Nc1nc(C(=O)NNS(=O)(=O)c2ccccc2)cs1 | > 100 µM |

So what TGI did Cc1nc2c(Br)cc(Br)cc2c(=O)n1-c1ccccc1N get with SF-539 CNS?
> 100 µM

Also need CCOC(=O)/C=C(/CN1C(=O)c2ccccc2C1=O)c1ccccc1 , thanks.
> 100 µM

----------
- Test system: ACHN renal
- testDescription: NCI tumour cell line growth inhibition, 48 h
valueKind: TGI

Some solved cases for reference:
| compound | TGI |
| --- | --- |
| CCCCS(=N)(=O)CC[C@H](N)C(=O)O (stereo partly drawn) | > 10000 µM |
| CCN1C/C(=C\c2ccc(Cl)cc2)C2=NN(c3ccccc3)C(c3ccc(Cl)cc3)C2C1 (stereo not drawn) | > 100 µM |

So what TGI did Cc1nc2c(Br)cc(Br)cc2c(=O)n1-c1ccccc1N get with ACHN renal?
> 100 µM

----------
- Tested on: K-562 leukemia
- testDescription: NCI tumour cell line growth inhibition, 48 h
valueKind: TGI

| molecule | systemUnderTest | TGI |
| --- | --- | --- |
| CCCCNC(=S)Nc1nc(C(=O)NNS(=O)(=O)c2ccccc2)cs1 | K-562 leukemia | > 100 µM |

# query: TGI of entry CCCN(CCCCC(NC(C)=O)C(=O)NCc1ccccc1)C(=O)NC (stereo not drawn)
> 100 µM

Also need CCCN(CCC)c1c([N+](=O)[O-])cc(S(N)(=O)=O)cc1[N+](=O)[O-] , thanks.
35.7 µM

Also need CN(C)CCNc1cccc2sc3ccc(O)cc3c(=O)c12 , thanks.
5.6 µM

Also need COc1ccc(-c2cc(-c3ccc(Nc4ccnc5cc(Cl)ccc45)cc3)nc(N)c2C#N)c2ccccc12 , thanks.
> 100 µM

Also need CC1=CC[C@@H]2C(C)(C)[C@@H](O)CC[C@@]2(C)[C@@H]1COc1ccc2ccc(=O)oc2c1 , thanks.
27.5 µM

Also need C=C1CCCCCCCCCCC1S(=O)c1ccccc1 (stereo not drawn) , thanks.
82.6 µM

----------
- Tested on: HS 578T breast
Outcomes you can answer with include only these: active, inactive

Would you please look over these solved cases?
| molecule | systemUnderTest | category |
| --- | --- | --- |
| Cc1ccc(N2C(=O)C(Cl)=C(Nc3cccc(O)c3)C2=O)cc1Cl | HS 578T breast | inactive |
| C=C1C(O)C2C(=C(CC(C)C)C13CC3)C(=O)C(C)(C)C2OC (centres undefined) | HS 578T breast | inactive |
| COC1C(O)=C2C(=O)OC(C)(O)/C=C/C=C\C=C/C=C/C(c3ccccc3)NC(=O)/C=C/C=C/C=C/C=C/C2(C)C1O (centres undefined) | HS 578T breast | active |
| COC(=O)c1ccc2c(c1)c1c(C)c3cnccc3c(C)c1n2C | HS 578T breast | active |
| O=C1C=C(c2cc(Br)c(O)c(Br)c2)/C(=C/c2cc(Br)c(O)c(Br)c2)O1 | HS 578T breast | inactive |

What is the recorded call for this molecule in the test? O=C(N/N=C/c1ccc(F)cc1)c1[nH]c2ccc(I)cc2c1-c1ccccc1
active

Also need CCC(=O)N1C/C(=C/c2ccc(OC)cc2)C(=O)/C(=C/c2ccc(OC)cc2)C1 , thanks.
inactive

Also need O=[N+]([O-])/C=C\c1ccc2c(c1)OCO2 , thanks.
inactive

Also need CCOC(=O)/C=C/c1ccc(C(=O)OCC)[nH]1 , thanks.
inactive

----------
List of TGI values.
- Test system: U251 CNS
- testDescription: NCI tumour cell line growth inhibition, 48 h

| compound | TGI |
| --- | --- |
| O=C(c1cccs1)N(C(=O)N1CCC(c2ccccc2)CC1)c1ccccc1 | > 100 µM |
| C=C[C@H]1CN2CC[C@H]1C[C@@H]2[C@@H](O)c1ccnc2ccccc12 | > 100 µM |
| Cn1c2ccccc2n2c3nc4ccccc4nc3c(C#N)c12 | > 100 µM |
| O=C1C=C(c2cc(Br)c(O)c(Br)c2)/C(=C/c2cc(Br)c(O)c(Br)c2)O1 | > 75 µM |

# query: TGI of entry N#CC1C(N)=NNC1c1ccc(-c2ccc(-c3nc4ccccc4o3)cc2)o1 (stereo not given)
> 100 µM

----------
- Tested on: K-562 leukemia
- testDescription: NCI tumour cell line growth inhibition, 48 h
valueKind: TGI

| molecule | TGI |
| --- | --- |
| COc1cccc(-c2cc(=O)c3cc(C)cnc3[nH]2)c1 | > 100 µM |
| O=C1Cc2c(-c3ccccc3)cc(-c3cccc(Cl)c3)nc2-c2ccccc2N1 | > 40.3 µM |
| C=CCN(N=O)C(=O)N(CCC)CCCC(NC(C)=O)C(=O)NCc1ccccc1 (stereo not given) | > 100 µM |
| CCCCc1cc(O)ccc1O | > 100 µM |
| O=[N+]([O-])C(=C(NCc1ccccc1)NCc1ccccc1)C(Cl)=C(Cl)Cl | 54.2 µM |
| CN(C)c1ccc(/C=N/NC2=N/C(=C\c3ccco3)C(=O)N2)cc1 | > 100 µM |
| COc1cc2ccc3c4cc(OC)c(OCc5ccccc5)cc4cnc3c2cc1OC | > 100 µM |
| COC(=O)C12C3C4C1C1C2C3C41I (stereo not given) | > 100 µM |

# query: TGI of entry COc1ccc2c(C3(O)CCNCC3)c[nH]c2c1
> 100 µM

----------
List of TGI values.
- System: NCI-H522 lung
- testDescription: NCI tumour cell line growth inhibition, 48 h
Reply with just the number (in µM).

Some solved cases for reference:
| compound | observedMeasurement |
| --- | --- |
| CN(C)CCNC(=O)c1cc([N+](=O)[O-])cc2ccc(-c3ccccc3)nc12 | 17.2 |
| CC(SC1=CC(=O)c2c(O)ccc(O)c2C1=O)C(=O)O (stereo not drawn) | 9.79 |
| CN(C)CCOc1ccc(-c2c(Oc3ccc(Cl)cc3)c(=O)oc3ccccc23)cc1 | 20.9 |

# query: TGI of entry COc1cccc(C2c3cc4c(cc3OC(N3CCOCC3)C2C)OCO4)c1O (stereo not drawn)
8.39

Also need NCCCCCCNc1cc(-c2cccc(OC(F)(F)F)c2)nc2ccc(N3CCCC3)cc12 , thanks.
3.1

Also need O=C1CSC2(CCN(CCCN3c4ccccc4Sc4ccc(Cl)cc43)CC2)N1 , thanks.
23.6

----------
List of TGI values.
- Test system: NCI-H23 lung
- testDescription: NCI tumour cell line growth inhibition, 48 h

| compound | valueKind | observedMeasurement |
| --- | --- | --- |
| O=c1c(OC/C(=N/O)c2ccccc2)c(-c2ccccc2)oc2ccccc12 | TGI | > 50 µM |
| O=C1CC(c2cccc(Cl)c2)n2cccc21 (stereo not drawn) | TGI | > 100 µM |

Read the next record carefully.
# query: TGI of entry OC1CCC(C2C3CCCCC3C3CCCCC3C2C2CCC(O)CC2)CC1 (stereo not drawn)
> 100 µM
